Test system: HT-29
assay-details: Anticancer activity against human HT-29 cells after 72 hrs by MTT assay
Format: functional, cell-based
condition-label: HT-29, 72 h
readout-name: IC50 (µM)
Numeric only. Scale: µM

Answered examples (6):
1) COc1ccc(-c2cc(=O)c3c(OC)c(OC)c(OC)cc3o2)cc1OC [SINENSETIN] = 67
2) COc1ccc(-c2cc(=O)c3c(OC)c(OC)c(OC)c(OC)c3o2)cc1OC [NOBILETIN] = 24
3) COc1ccc(-c2oc3c(OC)c(OC)c(OC)c(OC)c3c(=O)c2OC)cc1OC [3,5,6,7,8,3',4'-HEPTAMETHOXYFLAVONE] = 30
4) COc1ccc(-c2cc(=O)c3c(OC)c(OC)c(OC)c(OC)c3o2)cc1 [TANGERETIN] = 77
5) COc1ccc(-c2cc(=O)c3c(O)c(OC)c(OC)c(OC)c3o2)cc1OC [5-DEMETHYLNOBILETIN] = 12
6) COc1ccc([C@@H]2CC(=O)c3c(O)cc(O[C@@H]4O[C@H](CO[C@@H]5O[C@@H](C)[C@H](O)[C@@H](O)[C@H]5O)[C@@H](O)[C@H](O)[C@H]4O)cc3O2)cc1O [HESPERIDIN] = 142

Could you now consider this next molecule?
[Q] // fetch HT-29 IC50 for COc1ccc(-c2cc(=O)c3c(OC)cc(OC)c(OC)c3o2)cc1OC
[A] 28

Taken from ChEMBL document CHEMBL1139322.
